- TARGET_OF_ASSAY: T1, MC1-R of B-16 mouse melanoma cells (mouse, UniProt Q01727 1-315)
- T1 construct: whole, on cells; also called B16-F10 (MC1-R)
- TEST_NAME: radioligand competition, [I125]-NDP-α-MSH, B-16 membranes
PARAMETER_MEASURED: Ki (nM)
Supply the numeric figure in nM, leaving out any unit text.

Exam item: For XDHFRXK (N-terminal acetyl; Nle at 1 (X); D-Phe at 4; Nal 1 at 6 (X); cyclo(Asp 2 to Lys 7); C-terminal ethylamide -NH-CH2-CH3, also called Compound No. 39) [Ac-Nle-cyclo(-Asp-His-D-Phe-Arg-Nal 1-Lys)-NH-CH2-CH3] , what is its reported Ki?
Marked response: 0.07
